Catalogue of molecules with associated MIC
- Test system: Francisella tularensis
- ASSAY_DETAILS: Antibacterial activity against Francisella tularensis LVS infected in mouse RAW264.7 cells after 48 hrs by broth microdilution method
- Format: functional
Answer with the figure and its unit, nothing else.

{"SAMPLE_SMILES": "Nc1ccc(-n2nc(C(F)(F)F)cc2-c2ccc(-c3cc(Cl)c(Cl)cc3Cl)cc2)cc1", "EXPERIMENTAL_RESULT": "4 µg/mL"}

Q: I am curious: what MIC value has been reported for NC(=O)c1ccc(-n2nc(C(F)(F)F)cc2-c2c3ccccc3cc3ccccc23)cc1 ?
Ans: 16 µg/mL

Q: Please give the measured MIC for this molecule: COc1ccc2cc(-c3cc(C(F)(F)F)nn3-c3ccc(N)cc3)ccc2c1
Ans: 16 µg/mL

Q: Name the recorded MIC for NC(=O)c1ccc(-n2nc(C(F)(F)F)cc2-c2ccc(-c3ccccc3)cc2)cc1 .
Ans: 8 µg/mL

Q: Any idea what its MIC is? The molecule is NS(=O)(=O)c1ccc(-n2nc(C(F)(F)F)cc2-c2ccc(-c3cc(Cl)c(Cl)cc3Cl)cc2)cc1
Ans: 1 µg/mL

Q: # MIC lookup, item Nc1ccc(-n2nc(C(F)(F)F)cc2-c2ccc(-c3ccccc3)cc2)cc1
Ans: 4 µg/mL

---

- ASSAY_DETAILS: Selectivity index, ratio of IC50 for mouse RAW264.7 cells to MIC for Francisella novicida
- Format: functional
Use fulfilled when the recorded Ratio is no lower than 1; use not fulfilled when it is lower.

Would you please look over these solved cases?
{"SAMPLE_SMILES": "NS(=O)(=O)c1ccc(-n2nc(C(F)(F)F)cc2-c2ccc(-c3cc(Cl)c(Cl)cc3Cl)cc2)cc1", "CAT": "fulfilled"}
{"SAMPLE_SMILES": "NS(=O)(=O)c1ccc(-n2nc(C(F)(F)F)cc2-c2ccc(-c3ccc(Cl)cc3)cc2)cc1", "CAT": "fulfilled"}
{"SAMPLE_SMILES": "NC(=O)c1ccc(-n2nc(C(F)(F)F)cc2-c2ccc(-c3ccc(Cl)cc3)cc2)cc1", "CAT": "fulfilled"}
{"SAMPLE_SMILES": "Nc1ccc(-n2nc(C(F)(F)F)cc2-c2ccc(-c3ccc(Br)cc3)cc2)cc1", "CAT": "fulfilled"}
{"SAMPLE_SMILES": "Nc1ccc(-n2nc(C(F)(F)F)cc2-c2ccc(-c3ccccc3)cc2)cc1", "CAT": "fulfilled"}

Q: Entry Cc1ccc(-c2cc(C(F)(F)F)nn2-c2ccc(S(N)(=O)=O)cc2)cc1 : is its Ratio no less than 1?
Ans: not fulfilled

---

- Test system: Francisella tularensis
- ASSAY_DETAILS: Antibacterial activity against Francisella tularensis LVS infected in mouse RAW264.7 cells after 48 hrs by broth microdilution method
- Type: functional
Some molecules, each annotated with its measured MIC.
Answer format: numeric, µg/mL implied, no suffix.

{"SAMPLE_SMILES": "Nc1ccc(-n2nc(C(F)(F)F)cc2-c2cccc3ccccc23)cc1", "MIC / µg/mL": 8}
{"SAMPLE_SMILES": "NC(=O)c1ccc(-n2nc(C(F)(F)F)cc2-c2ccc(-c3ccc(Cl)cc3)cc2)cc1", "MIC / µg/mL": 2}
{"SAMPLE_SMILES": "Cc1ccc(-c2cc(C(F)(F)F)nn2-c2ccc(S(N)(=O)=O)cc2)cc1", "MIC / µg/mL": 16}
{"SAMPLE_SMILES": "CCCCc1ccc(-c2cc(C(F)(F)F)nn2-c2ccc(C(N)=O)cc2)cc1", "MIC / µg/mL": 8}
{"SAMPLE_SMILES": "NS(=O)(=O)c1ccc(-n2nc(C(F)(F)F)cc2-c2ccc(-c3ccc(Cl)cc3)cc2)cc1", "MIC / µg/mL": 4}

Q: Item under review: Nc1ccc(-n2nc(C(F)(F)F)cc2-c2ccc(-c3ccc(Br)cc3)cc2)cc1 . Reported MIC?
Ans: 4

Q: Quick one: MIC of Cc1ccc(-c2ccc(-c3cc(C(F)(F)F)nn3-c3ccc(C(N)=O)cc3)cc2)cc1 ?
Ans: 8

Q: Look up MIC for this molecule: NC(=O)c1ccc(-n2nc(C(F)(F)F)cc2-c2ccc(-c3cc(Cl)cc(Cl)c3)cc2)cc1
Ans: 4

Q: Find the recorded MIC belonging to NS(=O)(=O)c1ccc(-n2nc(C(F)(F)F)cc2-c2cccc3ccccc23)cc1 and report it.
Ans: 8
